- Test system: UACC-62
- assay: NCI tumour cell line growth inhibition, 48 h
Activity calls are given as the source filed them. Rule as the data show it: active = GI50 up to about 1.1 µM and inactive = higher.
// reported GI50 per item

Before answering, review these 5 worked examples.
* CCN(CC)CC(C(=O)Nc1c(C)cccc1C)/C(C)=N\NC(=O)C[N+](C)(C)C (stereo unspecified) | > 100 µM (inactive)
* CC(=O)NC1C(OCc2ccccc2)OC(CO)C(O)C1OCC(=O)N1CCCC1C(=O)N[C@@H](CCC(=O)NCCNCCNc1c2ccccc2nc2cccc([N+](=O)[O-])c12)C(N)=O (stereo partly specified) | 5.24 µM (inactive)
* CN1CCC2(CC1)C(=O)N(N1CCCCCC1)C(=O)N2c1ccccc1 | 96.6 µM (inactive)
* Cc1cc2c(=O)c3ccccc3[nH]c2c(C(=O)O)c1C | > 100 µM (inactive)
* CNC(C)C(O)c1ccc2oc3cc(=O)c4ccccc4c-3nc2c1 (stereo unspecified) | 3.82 µM (inactive)

Req: Quick one: give measured GI50 for COc1cc2c(cc1OC)CC(=O)Nc1cc(OC)c(OC)cc1CC2
Resp: 36.1 µM (inactive)

Req: Quick one: give measured GI50 for Cc1cc(C)c(/C=C(\C(=C/c2c(C)cc(C)cc2C)[N+](=O)[O-])[N+](=O)[O-])c(C)c1
Resp: > 100 µM (inactive)

Req: Quick one: give measured GI50 for N#CCCN(CCC#N)c1ccc(C(=N/c2ccc(F)cc2)/N=N/c2ccccc2)cc1
Resp: > 100 µM (inactive)

Req: Quick one: give measured GI50 for Cc1cccc(-c2nc(-c3cnccn3)n(Cc3ccccc3)n2)c1
Resp: 70.8 µM (inactive)

Req: Quick one: give measured GI50 for C[C@]12CCC(=O)C(O)=C1CC[C@@H]1C2CC[C@]2(C)Nc3c(cnn3-c3ccccc3)CC12 (stereo partly specified)
Resp: 77.6 µM (inactive)

Req: Quick one: give measured GI50 for COc1c(C)c(OC)c(C(=O)CC(C)C)c(OC)c1C
Resp: > 100 µM (inactive)

Req: Quick one: give measured GI50 for Cc1nc2cc([N+](=O)[O-])ccc2c(NCCCN(C)C)c1C
Resp: 15.6 µM (inactive)

Req: Quick one: give measured GI50 for CC(C)C1CO[C@]2(C)CCC(=O)N12 (stereo partly specified)
Resp: > 100 µM (inactive)
